Hey, just so you know, these numbers are from ChEMBL document CHEMBL3507680.

experiment: Human HepG2 cell viability assay in 384 well format; format: toxicity, cell-based; set-up: dose 125 nL, time 70.5 hour; concentration not given beside the values; conditions: HepG2 cells, read-out: Inhibition
Below, each entry is listed with its recorded cytotoxicity at 70.5 h.
Property Label: cytotoxicity at 70.5 h (%)

O=C1NC[C@@]2(C(=O)O)CN(Cc3cccc(CN4CCOCC4)c3)C[C@@H]12
1.62
O=C(NCCNS(=O)(=O)c1cccc(Cl)c1)C1CCCO1 (stereo unspecified)
6.97
Cc1nn(C)cc1CN1CCCC(n2c(=O)oc3ccccc32)C1 (stereo unspecified)
0.702
O=c1cc(Cn2ccnc2)nc2n1CCCN(Cc1cccs1)C2
-16.6
O=C(CCn1cccc1)N1CCc2[nH]nc(COc3ccccc3)c2C1
-7.09
COCCC(=O)N(CCC#N)c1ccc2c(c1)OCCO2
-0.557
Cn1c(C2CC2)nc2c1CCN(Cc1nc(Cc3ccccc3)no1)C2
-12.9
Cc1ncncc1C(=O)N1CCOC(C)(C(=O)NC2CCCC2)C1 (stereo unspecified)
-1.33
O=C1[C@H]2CN(Cc3cccs3)C[C@H]2CN1c1ccsc1
-5.8
CC(C)Cc1nc(CN2CCOC(Cn3cncn3)C2)no1 (stereo unspecified)
-8.48
O=C(C1CCC1)N1CCC2(COCc3cnc(-c4cccnc4)nc32)C1 (stereo unspecified)
-3.5

====

assay: Human HepG2 cell viability assay in 384 well format; type: toxicity, cell-based; parameters: dose 125 nL, time 70.5 hour; concentration not given beside the values; conditions: HepG2 cells, read-out: Inhibition
Property Label: cytotoxicity at 70.5 h (%)

CS(=O)(=O)NC1CCCN(C(=O)COCc2ccccc2)C1 (stereo not given)
-10.6
O=C(c1ccc2c(c1)OCCCO2)N1CCCCC1C1OCCO1 (stereo not given)
-3.71
O=C(NCCNc1ncccn1)c1ccc(OCc2ccccc2)nc1
-13.5
O=C(c1ncncc1Cl)N1CCN(c2ccc(Cl)cc2)CC1
-8.8
O=C(O)[C@@H]1CN(C(=O)Cc2ccccc2Cl)C[C@H]1C1CC1
-15.8
CN(CC1Cc2ccccc2CN1C)C(=O)CSc1nccn1C (stereo not given)
-8.61
CN(C1CCN(c2ccccn2)CC1)S(=O)(=O)c1ccccc1F
-3.26
Cn1c(C2CC2)nc2c1CCN(CCOc1cccc(F)c1)C2
5.07
O=C(CSc1nncs1)N1CCN(Cc2ccc(Cl)s2)CC1
-9.92
O=C(c1ccc2c(c1)CCCC2)N1CCOCC1c1ncon1 (stereo not given)
2.82
Cc1cc(CN(C)C(=O)NC(C)Cc2ccco2)no1 (stereo not given)
-3.4
CCOCC1CCN(C(=O)c2sc(C)cc2OC(F)F)CC1
-5.96
COc1ccc(-c2ccccc2CCN)c(OC)c1
-10.1
CCCOC(=O)N1CCCC(c2nnc(CN3CCOCC3)n2C)C1 (stereo not given)
2.16
CC(=O)c1ccc(CNC(=O)c2cc(C)nn2C)nc1C
3.42
O=C(NCCO)c1ccn(-c2ccc3ccccn23)n1
25.4
Cc1ccc(C(=O)N(C)Cc2cc(Br)cs2)c(=O)[nH]1
-11.5
O=c1cc2c(nn1CN1CCN(c3ccc(F)cc3)CC1)CCC2
-13.2
COc1ccccc1N1CCN(Cc2nc(C)c(C)o2)CC1
-8.1
CN1CCC2(CCN(CC3CC3)CC2)C1=O
-7.27
NC(=O)CN(CC(=O)NCc1cccc(Cl)c1)C1CCCC1
-11.2
O=C1COc2c(cccc2C(=O)N2CCCC2Cn2cccn2)N1 (stereo not given)
-8.08
Cc1ccc(-n2nnc(C(=O)O)c2C)c(C)c1
0.943
O=C1NC2(CCN(CC(=O)N3CCOCC3)CC2)Nc2ccc(Br)cc21
-2.15
Cc1nc(Nc2nccs2)cc(C2CCCN2C2CCOCC2)n1 (stereo not given)
-8.39

====

cytotoxicity at 70.5 h reference
assay: Human HepG2 cell viability assay in 384 well format; format: toxicity, cell-based; design: dose 125 nL, time 70.5 hour; concentration not given beside the values; details: HepG2 cells, read-out: Inhibition
Property Label: cytotoxicity at 70.5 h (%)

O=C(CCCN1CCOCC1)N1CCCC(CO)(CC2CC2)C1 (stereo unspecified)
-9.81
COc1ccc(Nc2nc3c(C)nn(C)c3c(=O)n2C)c(OC)c1
-18.2
Cc1c[nH]nc1C1CN(c2cnccn2)CCO1 (stereo unspecified)
-4.52
CCCn1ncc(C2CC(=O)NCc3nc4cc(C)ccn4c32)c1C (stereo unspecified)
2.43
O=C(Nc1cccnc1N1CCSCC1)c1ccc2c(c1)CCO2
53.2
COCCC(=O)N1CCCC(c2n[nH]cc2C)C1 (stereo unspecified)
15.1

====

test: Human HepG2 cell viability assay in 384 well format; type: toxicity, cell-based; design: dose 125 nL, time 70.5 hour; concentration not given beside the values; settings: HepG2 cells, read-out: Inhibition
Property Label: cytotoxicity at 70.5 h (%)

CCC(C)CNCC1(S(C)(=O)=O)CCOCC1 (centres undefined)
-1.98
CN(CC(N)=O)Cc1c(Cl)ccc2cccnc12
-2.22
CCn1ncc(CN2CCc3c(nc(-c4cccnc4)[nH]c3=O)C2)c1C
-18.3
c1cc(-c2ccc3c(c2)CCC32CCNCC2)ccn1
26.1
CCS(=O)(=O)N1CCc2onc(CNc3ncccn3)c2C1
-8.6
Cc1ccsc1[C@@H]1CCN(C(=O)CCc2cc(O)no2)C[C@H]1O
-15.1
CN(C)C(=O)C1(c2cnccn2)CCCN1C(=O)Cc1ccsc1 (centres undefined)
-5.5
CCNC(=O)[C@@H]1C[C@@H](N)CN1C(=O)c1[nH]c2ccccc2c1CC
18
CC(C)n1cnc(-c2nc(C(=O)N3CCN(C)CC3)c3ccccn23)c1
-2.41
CN1C(=O)CC(c2cnn(C)c2)C12CCN(C(=O)c1ccncc1)CC2 (centres undefined)
-6.57
CCC(=O)N1CC[C@H]2[C@H](C[C@@H](CN3CCCC3)N2c2nccs2)C1
-3.2
CCC(Cn1ccnc1)n1cnc2c(C)csc2c1=O (centres undefined)
-14.3
CC(NC(=O)c1csnn1)c1ccc(OCC2CC2)c(F)c1 (centres undefined)
14.5
CS(=O)(=O)CCn1ccc(NC(=O)c2c(F)cccc2F)n1
-12.1
Cc1cc(C)c2nc(C)cc(C(=O)NCc3csc(N(C)C)n3)c2c1
27.3
Cc1ccc(S(=O)(=O)N2CCCC(c3n[nH]cc3C(=O)N(C)C)C2)cc1 (centres undefined)
9.91
O=C1CCN(C(=O)C2(c3ccc(F)cc3)CCCC2)CCN1
-5.37
Cc1cc(NC(=O)CSc2nc(=O)ccn2C(C)C)no1
-0.711
CCN1C(=O)CCC12CCCN(S(=O)(=O)c1cccc(C)c1)CC2 (centres undefined)
-2.78
COc1ccc(C2=CCN(C(=O)C3CCCN(C(C)=O)C3)CC2)cc1 (centres undefined)
-1.69
Cc1nnc(N2CCC(CCn3ccnc3C)CC2)o1
-5.62
Cc1ccc(C(=O)Nc2nn[nH]n2)s1
-0.43
CCN(CC)CCNC(=O)CCc1c(C)nn(-c2cccc(Cl)c2)c1C
0.617
C1CCN(CCOC2CCNCC2)CC1
19.9

====

test: Human HepG2 cell viability assay in 384 well format; format: toxicity, cell-based; parameters: dose 125 nL, time 70.5 hour; concentration not given beside the values; conditions: HepG2 cells, read-out: Inhibition
Property Label: cytotoxicity at 70.5 h

COc1ccccc1-c1cc(NC(=O)COCC2CC2)[nH]n1
-4.9%
CN1CC(=O)N(c2cccc(F)c2)CC12CCN(Cc1nccs1)C2 (stereo unspecified)
-1.43%
COc1ccc(C2CCCN2C(=O)c2ccc(=O)n(C)c2)cc1OC (stereo unspecified)
-6.18%
O=C(c1ccco1)N1C[C@H]2CCCN(Cc3cccs3)[C@H]2C1
7.1%
NCc1cnn(-c2ccccc2C(=O)N2CCCC(C(N)=O)C2)c1 (stereo unspecified)
-2.72%
CO[C@@H]1CCN(C(=O)c2cc(C)on2)C[C@@H]1Cc1ccccc1
20.3%
COc1ccccc1-n1cc(CN2CCN(C)[C@@H]3CS(=O)(=O)C[C@@H]32)cn1
-7.42%
CCc1cc(O)nc(C2CCCN2C(=O)COC)n1 (stereo unspecified)
-5.06%
CC(C)(C)C(=O)NCC(=O)Nc1cccnc1
-6.42%
Cc1cc(NCc2ccc(CS(N)(=O)=O)cc2)nc(C)n1
-12.6%
O=C(c1ccco1)N1CCN2C[C@H](OCc3cccnc3)C[C@H]2C1
-12.3%

====

assay: Human HepG2 cell viability assay in 384 well format; type: toxicity, cell-based; parameters: dose 125 nL, time 70.5 hour; concentration not given beside the values; details: HepG2 cells, read-out: Inhibition
// reported cytotoxicity at 70.5 h for each item listed
Property Label: cytotoxicity at 70.5 h (%)

Cc1ccc(-c2nc3c([nH]2)CCNC3C(=O)O)c2cccnc12 (stereo not drawn)
-6.16
Cc1noc([C@@]23CCO[C@@H]2CCN(C(=O)c2sccc2C)C3)n1
-1.6
COc1ccc(C(C(=O)O)N2CCC(Cn3cccn3)CC2)c(OC)n1 (stereo not drawn)
15.1
Cc1[nH]c2c(F)cccc2c1CC(=O)N1CCCC(N)CC1 (stereo not drawn)
14.1
CC(C)(C)CC(NC(=O)c1nc(=O)[nH][nH]1)c1ccc(F)cc1 (stereo not drawn)
-3.76
CC(C(=O)N1CCOCC1)n1nc(-c2cccs2)cc(N)c1=O (stereo not drawn)
2.02
COc1ccccc1CN1C[C@@H](F)[C@@H](OCc2nc3ncccc3[nH]2)C1
-0.841
CC(C)(C)n1ccc(C(=O)N2CCCC(c3ccc(C(=O)O)cc3)C2)c1 (stereo not drawn)
-13.3
CC(C)(C)c1cc(C(=O)N2CCC(c3cnccn3)CC2)[nH]n1
-5.82
c1ccc(N2CCCC2)c(NCc2ccncc2)c1
-39.9
CN(C)C(=O)[C@@H]1CCO[C@@H]2CCN(CCOCc3ccccc3)C[C@H]21
20.6
Cc1cc(N2CCCN(C(=O)CSCC3CC3)CC2)ccn1
-17.7
CCc1nn(-c2cc(Oc3cc(C)ccc3C)ncn2)c(N)c1C#N
-1.76
Cc1cc(N2CCC(c3n[nH]c4nccnc34)C2)ncn1 (stereo not drawn)
19.2
Cn1cc(CC2CCN(C(=O)NCc3cn4ccsc4n3)C2)cn1 (stereo not drawn)
23.7
CCCS(=O)(=O)N1C[C@@H]2COC[C@@H](Cc3nc(C)no3)[C@@H]2C1
-1.7
CC(NC(=O)NC1CC1)c1nc(-c2ccccc2)cs1 (stereo not drawn)
-8.69
CC1CCN(C(=O)C(C)N2CCc3[nH]nc(C(F)(F)F)c3C2)CC1 (stereo not drawn)
-8.79
c1cc(-c2ccc3c(c2)CCC32CCN(c3nncs3)CC2)ccn1
-2.69
O=C(NCCN1CCOCC1)c1ccc(-n2ccc3ccccc32)s1
-8.71
CC(C)N1CCO[C@@H]2CN(S(=O)(=O)c3cccs3)CC[C@@H]2C1
-7.93
CCC(C)N(Cc1cccnc1)Cc1cc2c(cc1Cl)OCO2 (stereo not drawn)
-1.59
CCn1cnnc1CNC(=O)N1CCN(c2ccccc2O)CC1
-13.9
